experiment: yeast display, Sf9 membrane polyspecificity reagent, FACS + sequencing; frameworks hold sequencing errors
observation_type: polyreactivity (PSR sort gate)

Example entries and their recorded answers appear below.
>>> result("QVQLVESGGGLVQAGGSLRLSCAASGSTFSPYAMGWYRQAPGKEMDFVAAITSSGGSTYYADSVKGRFTISRDNAKNTVYLQMNSLKPEDTALYYFAAEGYYTSTYDLFDYYYWGQGTQVTVSS")
"low polyreactivity"
>>> result("QVQLVESGGGLVQAGGSLRLSCAASGRIFYRNAMGWYRPAPGKERELVASITSAGRTYYADSVKGRFTISRDNAKNTVYLQMNSLKPEDTAVYYCAVRVAVLLNLYGYWGQGTQVTVSS")
"low polyreactivity"
>>> result("QVQLQESGGGLVQAGGSLRLSCAASGTISQEDWMGWYRQAPGKEREFVAAIGLGSNTNYADSLKGRFSISRDPAKITVYLQMNSLKPEDTAVYYCAVSVWQYSDHVYRGQGTQVTVSS")
"low polyreactivity"
>>> result("QVQLVESGGGLFQAGGSLRLSCAASGLTFYIYAMGWYRQAPGKEREFVAAIRRSGGRTYYADSVKGRFTISRDNAKNTVYLQMNSLKPEDTAVYYCNRYTQYRDRSDNHWGQGTQVTVSS")
"high polyreactivity"

Supply polyreactivity (PSR sort gate) value. Item: `QVQLVESGGGLVEAGGSLRLSCAASGFNIPIYAMGWYRPAPGKERELVASITRSGGSTYYADSVKGRFTISRDNAMNTVYLQMNSLKPEDTAVYFCAASVKIISYLVHSELLGGELDYWGQGTQVTVSS`
low polyreactivity

Supply polyreactivity (PSR sort gate) value. Item: `QVQLVESGGGLVQAGGSLRLSCAASGITFAENAMGWFRQAPGKERELVAAISGSGVDTYYADSVKGRFTISRDNAKNPVYLQMNSVKPEDTAVYYSNAVYYRSSYPSGRYGMDYWGQGTQVTVSS`
high polyreactivity

Supply polyreactivity (PSR sort gate) value. Item: `QVQLVESGGGLVQAGRSLRLSCAASGSNFLTNTMGWYRQAPGKERELVAAITLRGGRTYYADSVKGRFTISRDNAKNTVYLHMNSLKPEDTAVYYCNARNYYYPSDRDYWGQGTQVTGSS`
low polyreactivity

The values you see were collected from the nanobody polyreactivity screen of Harvey et al. (2022).
